method description: Oral bioavailability in Wistar rat at 29.73 mg/kg
Type: ADME, organism-based
test context: in vivo
measured metric: bioavailability (%)
Reply numerically in %, unit not repeated.

# query: bioavailability of entry CC(C)N1CCN(S(=O)(=O)c2ccc(NC(=O)c3ccc(C(F)(F)F)cc3[N+](=O)[O-])cc2)CC1
46.8

---

tested system: Transient receptor potential cation channel subfamily V member 3 (Homo sapiens, UniProt Q8NET8)
Sequence (Q8NET8 whole entry): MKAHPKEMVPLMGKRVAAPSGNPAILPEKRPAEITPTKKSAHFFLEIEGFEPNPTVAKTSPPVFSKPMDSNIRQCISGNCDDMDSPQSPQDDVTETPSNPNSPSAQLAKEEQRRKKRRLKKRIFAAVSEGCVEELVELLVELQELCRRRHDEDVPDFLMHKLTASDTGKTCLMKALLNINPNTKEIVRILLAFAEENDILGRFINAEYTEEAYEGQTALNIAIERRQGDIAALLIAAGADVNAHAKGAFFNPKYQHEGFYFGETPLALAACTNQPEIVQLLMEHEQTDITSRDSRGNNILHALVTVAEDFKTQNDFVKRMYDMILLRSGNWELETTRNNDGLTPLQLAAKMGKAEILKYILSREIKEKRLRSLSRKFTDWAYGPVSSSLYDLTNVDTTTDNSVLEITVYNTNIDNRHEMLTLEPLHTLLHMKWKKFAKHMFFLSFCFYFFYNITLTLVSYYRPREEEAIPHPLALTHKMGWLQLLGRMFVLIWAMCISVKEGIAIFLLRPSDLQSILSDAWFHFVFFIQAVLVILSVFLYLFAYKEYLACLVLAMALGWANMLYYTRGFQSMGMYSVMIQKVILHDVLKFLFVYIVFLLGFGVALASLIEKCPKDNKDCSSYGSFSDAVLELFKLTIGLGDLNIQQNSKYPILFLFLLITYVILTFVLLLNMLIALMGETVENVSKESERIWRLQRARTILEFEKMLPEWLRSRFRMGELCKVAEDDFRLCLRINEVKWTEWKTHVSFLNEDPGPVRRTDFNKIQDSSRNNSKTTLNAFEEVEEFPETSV
method description: Antagonist activity at human TRPV3 receptor expressed in HEK293 cells assessed as inhibition of capsaicin-stimulated calcium flux after 10 mins
pIC50: −log10 of the molar value.
measured metric: pIC50

May I ask what pIC50 has been recorded for CC(C)N1CCN(S(=O)(=O)c2ccc(NC(=O)c3ccc(C(F)(F)F)cc3[N+](=O)[O-])cc2)CC1 ?
< 4.52

---

tested system: Transient receptor potential cation channel subfamily M member 8 (Homo sapiens, UniProt Q7Z2W7)
Sequence (Q7Z2W7 whole entry): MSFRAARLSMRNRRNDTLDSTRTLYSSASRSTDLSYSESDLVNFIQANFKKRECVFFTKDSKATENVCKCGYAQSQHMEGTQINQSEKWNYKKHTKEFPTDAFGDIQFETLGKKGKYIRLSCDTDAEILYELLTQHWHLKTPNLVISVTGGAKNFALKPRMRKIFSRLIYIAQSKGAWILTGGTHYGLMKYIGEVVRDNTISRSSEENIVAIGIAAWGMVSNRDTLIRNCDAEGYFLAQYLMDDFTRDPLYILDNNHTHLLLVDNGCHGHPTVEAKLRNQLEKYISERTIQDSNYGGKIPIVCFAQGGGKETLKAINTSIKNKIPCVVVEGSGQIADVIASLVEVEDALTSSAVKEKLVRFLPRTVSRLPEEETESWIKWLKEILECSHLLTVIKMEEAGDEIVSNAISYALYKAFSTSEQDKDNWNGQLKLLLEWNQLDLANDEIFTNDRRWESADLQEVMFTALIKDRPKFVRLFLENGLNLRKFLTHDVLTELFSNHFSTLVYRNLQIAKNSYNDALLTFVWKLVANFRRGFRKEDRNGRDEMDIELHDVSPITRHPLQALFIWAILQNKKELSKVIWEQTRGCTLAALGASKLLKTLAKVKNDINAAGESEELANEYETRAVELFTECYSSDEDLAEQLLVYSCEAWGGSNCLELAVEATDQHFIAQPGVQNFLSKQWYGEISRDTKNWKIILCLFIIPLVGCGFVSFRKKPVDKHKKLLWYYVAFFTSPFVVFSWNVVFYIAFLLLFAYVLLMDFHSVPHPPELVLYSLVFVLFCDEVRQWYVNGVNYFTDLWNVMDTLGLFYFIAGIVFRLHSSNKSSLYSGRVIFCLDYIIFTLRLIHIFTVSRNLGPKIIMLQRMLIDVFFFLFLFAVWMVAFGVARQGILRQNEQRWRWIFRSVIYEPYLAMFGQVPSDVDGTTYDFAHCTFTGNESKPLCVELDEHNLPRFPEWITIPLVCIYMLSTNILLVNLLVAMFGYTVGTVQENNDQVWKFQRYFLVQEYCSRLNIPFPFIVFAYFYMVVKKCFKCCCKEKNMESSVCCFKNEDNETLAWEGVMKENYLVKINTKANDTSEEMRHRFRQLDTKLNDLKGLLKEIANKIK
method description: Antagonist activity at human TRPM8 receptor expressed in HEK293 cells assessed as inhibition of menthol-stimulated calcium flux after 10 mins
measured metric: IC50
Please answer in the form of a number followed by its unit of measurement.

State the recorded IC50 for this entry: CC(C)N1CCN(S(=O)(=O)c2ccc(NC(=O)c3ccc(C(F)(F)F)cc3[N+](=O)[O-])cc2)CC1
30 µM

---

tested system: Transient receptor potential cation channel subfamily V member 4 (Rattus norvegicus, UniProt Q9ERZ8)
Sequence (Q9ERZ8 whole entry): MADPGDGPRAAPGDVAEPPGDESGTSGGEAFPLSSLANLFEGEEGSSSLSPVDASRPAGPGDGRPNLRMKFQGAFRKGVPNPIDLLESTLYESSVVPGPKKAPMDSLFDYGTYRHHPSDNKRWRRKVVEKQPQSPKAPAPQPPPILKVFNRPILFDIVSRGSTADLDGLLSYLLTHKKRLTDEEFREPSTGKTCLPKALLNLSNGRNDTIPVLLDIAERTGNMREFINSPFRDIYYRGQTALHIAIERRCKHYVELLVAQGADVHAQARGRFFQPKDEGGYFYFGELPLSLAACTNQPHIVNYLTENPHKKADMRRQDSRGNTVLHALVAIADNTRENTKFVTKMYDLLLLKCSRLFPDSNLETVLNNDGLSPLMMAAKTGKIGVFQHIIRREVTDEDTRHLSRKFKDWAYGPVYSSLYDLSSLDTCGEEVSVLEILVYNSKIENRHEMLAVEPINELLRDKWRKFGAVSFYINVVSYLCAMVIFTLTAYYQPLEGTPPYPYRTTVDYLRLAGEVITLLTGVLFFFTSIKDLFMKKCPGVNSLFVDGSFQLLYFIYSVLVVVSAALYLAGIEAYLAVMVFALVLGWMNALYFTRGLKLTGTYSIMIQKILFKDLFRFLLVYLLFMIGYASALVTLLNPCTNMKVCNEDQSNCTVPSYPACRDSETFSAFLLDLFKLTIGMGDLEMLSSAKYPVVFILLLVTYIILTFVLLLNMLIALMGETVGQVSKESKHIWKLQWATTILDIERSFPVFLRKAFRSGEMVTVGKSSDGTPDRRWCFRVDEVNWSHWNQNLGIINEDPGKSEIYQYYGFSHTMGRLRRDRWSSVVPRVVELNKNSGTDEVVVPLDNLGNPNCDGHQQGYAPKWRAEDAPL
method description: Antagonist activity at rat TRPV4 receptor expressed in HEK293 cells assessed as inhibition of 4alpha-PDD-stimulated calcium flux after 10 mins
Type: cell-based
measured metric: pIC50
The meaning of pIC50 here: minus log10 of the concentration in molar units.

May I ask what pIC50 has been recorded for CC(C)N1CCN(S(=O)(=O)c2ccc(NC(=O)c3ccc(C(F)(F)F)cc3[N+](=O)[O-])cc2)CC1 ?
6.92

---

method description: Bioavailability in Wistar rat at 32.50 mg/kg, ip
Type: ADME, organism-based
test context: in vivo, 32.5 mg/kg
measured metric: bioavailability (%)
Quick reminder: number only, in %, skip the unit.

What value of measured bioavailability is listed for CC(C)N1CCN(S(=O)(=O)c2ccc(NC(=O)c3ccc(C(F)(F)F)cc3[N+](=O)[O-])cc2)CC1 ?
75
